Quick reference: pest or weed control at 63 g/ha of the listed items.
# System: sicklepod (Cassia obtusifolia, CASOB)
# method notes: Post-emerge test, greenhouse herbicide activity screening
# Format: in vivo
# condition notes: Senna obtusifolia, post-emergence, 336 h; post-emerge, 63 g ai/ha, phytotoxicity rating 0-100 at 14 days after application; read-out: Post-emerge Herbicidal Activity CASOB
# Procedure: A standard greenhouse herbicide activity screening system was used to evaluate the herbicidal efficacy and crop safety of these test compounds. […] At 14 days after application of the test materials, phytotoxicity ratings were recorded. […]
The answer is to be given in %; state only the numeric part.

| compound | data value |
| --- | --- |
| O=C(Nc1cc(Cl)ccc1N1C(=O)c2ccccc2C1=O)c1ccc2ccccc2c1 [Compound 13-5] | 40 |

q: So what's the measured pest or weed control at 63 g/ha for this one? COc1c(Cl)cc(F)c(-n2nc(C)n(C(F)F)c2=O)c1NC(=O)c1ccc2ccccc2c1 [Compound 6-15]
a: 100

q: And what about the compound COc1c(Cl)cc(Cl)c(-n2nc(C)n(C(F)F)c2=O)c1NC(=O)c1ccc2ccccc2c1 [Compound 6-17] ?
a: 50

q: Input Cc1nn(-c2c(Cl)cc(Cl)c(N)c2N)c(=O)n1C(F)F [Compound 6-20]
a: 0

q: Another: Cc1nn(-c2c(F)cc(Cl)cc2NC(=O)c2ccc3ccccc3c2)c(=O)n1C(F)F [Compound 6-24]
a: 0

q: Further, for Cc1nn(-c2c(N)cc(Cl)cc2F)c(=O)n1C(F)F [Compound 6-22] ?
a: 0

====

Post-emerge phytotoxicity rating CORN (crop damage) by entry:
# Test system: field corn (Zea mays L., var. Dekalb 535, CORN)
# method notes: Post-emerge test, crop safety
# Format: in vivo
# condition notes: Rate 250 g ai/ha; rating scale 0-100 (0 no damage, 100 complete death); 14 days after application
Number, no unit, nothing else.

See these solved cases before continuing.
| compound | data value |
| --- | --- |
| C#CCOC(=O)C(Cl)Cc1c(OC)c(Cl)cc(F)c1-n1c(=O)cc(C(F)(F)F)n(C)c1=O (single isomer, unassigned) [14-20] | 80 |
| C#CCOC(=O)C(Cl)Cc1c(OC)c(Cl)cc(F)c1-n1c(=O)cc(C(F)(F)F)n(C)c1=O (single isomer, unassigned) [14-19] | 40 |

q: Reported Post-emerge phytotoxicity rating CORN (crop damage), compound COc1c(Cl)cc(F)c(-n2c(=O)cc(C(F)(F)F)n(C)c2=O)c1CC(Cl)C(=O)OC(C)(C)C (stereo not shown) : ____
a: 50

q: Please answer likewise for COc1c(Cl)cc(F)c(-n2c(=O)cc(C(F)(F)F)n(C)c2=O)c1CC(Cl)C(=O)OCC(F)(F)C(F)F (stereo not shown)
a: 50

====

Each item that follows carries a reported Post-emerge Herbicidal Activity ABUTH (phytotoxicity rating).
# Test system: velvetleaf (Abutilon theophrasti, ABUTH)
# method notes: Post-emerge test, greenhouse herbicide activity screening
# Format: in vivo
# condition notes: 250 g ai/ha; post-emerge; 14 days after application; rating scale 0-100

q: Consider the compound shown here: COc1c(Cl)cc(F)c(-n2c(=O)cc(C(F)(F)F)n(C)c2=O)c1NN=C(C(F)(F)F)C(F)(F)F [15-21] What is its recorded Post-emerge Herbicidal Activity ABUTH (phytotoxicity rating)?
a: 100

q: Continue with CCCOC(=O)C(Cl)Cc1c(OCC)c(Cl)cc(F)c1-n1c(=O)cc(C(F)(F)F)n(C)c1=O (centres unmarked) [14-66]
a: 100

q: Also need Cn1c(C(F)(F)F)cc(=O)n(-c2c(Cl)cc(Cl)cc2OC(=O)c2ccc(F)cc2F)c1=O [16-4] , thanks.
a: 0

q: Note, next up: COc1c(Cl)cc(F)c(-n2c(=O)cc(C(F)(F)F)n(C)c2=O)c1NN=Cc1ccc(F)cc1F [15-20]
a: 100

====

# Tested on: large crabgrass (Digitaria sanguinalis, DIGSA)
# method notes: Pre-emerge test, greenhouse herbicide activity screening
# Format: in vivo
# condition notes: 63 g ai/ha; phytotoxicity rating 0-100, 14 days after application
Listed below: Pre-emerge Herbicidal Activity DIGSA values for each entry.
Give only the figure.

| compound structure | data value |
| --- | --- |
| COc1c(Cl)cc(F)c(-n2c(=O)cc(C(F)(F)F)n(C)c2=O)c1NC(=O)OCc1c(F)cccc1F | 100 |
| COC(=O)N(C(=O)OC)c1c(OC)c(Cl)cc(F)c1-n1c(=O)cc(C(F)(F)F)n(C)c1=O | 40 |
| Cn1c(C(F)(F)F)cc(=O)n(-c2c(F)cc(Cl)c(O)c2NC(=O)c2ccc3ccccc3c2)c1=O | 0 |
| CCCCCC(=O)Nc1c(OC)c(Cl)cc(F)c1-n1c(=O)cc(C(F)(F)F)n(C)c1=O | 100 |
| COc1c(Cl)cc(F)c(-n2c(=O)cc(C(F)(F)F)n(C)c2=O)c1NC(=O)OCc1cc(C)cc(C)c1 | 60 |
| Cn1c(C(F)(F)F)cc(=O)n(-c2ccc(Cl)cc2NC(=O)C2CC2)c1=O | 35 |
| COc1c(Cl)cc(F)c(-n2c(=O)cc(C(F)(F)F)n(C)c2=O)c1NC(=O)OCc1cc(C)ccc1C | 95 |
| COc1c(Cl)cc(F)c(-n2c(=O)cc(C(F)(F)F)n(C)c2=O)c1NC(=O)Oc1ccccc1C(C)(C)C | 0 |
| COc1c(Cl)cc(F)c(-n2c(=O)cc(C(F)(F)F)n(C)c2=O)c1NC(=O)OCc1ccc(C(C)C)cc1 | 10 |
| COc1c(Cl)cc(F)c(-n2c(=O)cc(C(F)(F)F)n(C)c2=O)c1NC(=O)C1CC1 | 0 |

q: Give Pre-emerge Herbicidal Activity DIGSA (large crabgrass (Digitaria sanguinalis, DIGSA)) of the following compound: `Cn1c(C(F)(F)F)cc(=O)n(-c2ccc(Cl)cc2NC(=O)Oc2ccccc2)c1=O`
a: 0

q: Would you kindly repeat that for `COc1c(Cl)cc(F)c(-n2c(=O)cc(C(F)(F)F)n(C)c2=O)c1NC(=O)OCc1ccc(OC(F)(F)F)cc1` ?
a: 0

q: // same read-out, input: `COc1c(Cl)cc(F)c(-n2c(=O)cc(C(F)(F)F)n(C)c2=O)c1NC(=O)OCc1ccc2c(c1)OCO2`
a: 100

q: Also `COc1c(Cl)cc(F)c(-n2c(=O)cc(C(F)(F)F)n(C)c2=O)c1NC(=O)OCc1c(Cl)cccc1Cl` , if possible.
a: 30

q: And `COc1ccc(COC(=O)Nc2c(OC)c(Cl)cc(F)c2-n2c(=O)cc(C(F)(F)F)n(C)c2=O)cc1` ?
a: 100

q: Follow-up item: `CC(C)Oc1c(Cl)cc(F)c(-n2c(=O)cc(C(F)(F)F)n(C)c2=O)c1NC(=O)c1ccc2ccccc2c1`
a: 80

====

# Test system: field corn (Zea mays L., var. Dekalb 535, CORN)
# method notes: Pre-emerge test, crop safety
# Assay type: in vivo
# condition notes: pre-emerge, 250 g ai/ha, 14 days after application, scale 0-100
Listed below: phytotoxicity rating CORN (crop damage) values for each entry.

Examples from the recorded data:
| compound | data value |
| --- | --- |
| COc1ccccc1C=CC(=O)Nc1c(OC)c(Cl)cc(F)c1-n1c(=O)cc(C(F)(F)F)n(C)c1=O | 0 |
| COc1c(Cl)cc(F)c(-n2c(=O)cc(C(F)(F)F)n(C)c2=O)c1NC(=O)Cc1ccccc1 | 30 |
| COc1c(Cl)cc(F)c(-n2c(=O)cc(C(F)(F)F)n(C)c2=O)c1NC(=O)COc1ccc(Cl)cc1 | 0 |
| CCOC(=O)C(C)Oc1ccc(-n2c(=O)cc(C(F)(F)F)n(C)c2=O)c(NC(=O)c2ccc3ccccc3c2)c1 (centres unmarked) | 0 |
| COc1c(Cl)cc(F)c(-n2c(=O)cc(C(F)(F)F)n(C)c2=O)c1NC(=O)CSc1ccc2ccccc2c1 | 0 |

q: Look up phytotoxicity rating CORN (crop damage) for this compound: `Cn1c(C(F)(F)F)cc(=O)n(-c2ccc(C#N)cc2NC(=O)c2ccc3ccccc3c2)c1=O`
a: 15

q: Moving on to `COc1ccc(-n2c(=O)cc(C(F)(F)F)n(C)c2=O)c(NC(=O)c2ccc3ccccc3c2)c1`
a: 5

q: Note, next up: `COc1c(Cl)cc(Cl)c(-n2c(=O)cc(C(F)(F)F)n(C)c2=O)c1NC(=O)c1ccc2ccccc2c1`
a: 0

====

Each entry below lists one item and its recorded Post-emerge phytotoxicity rating RICE (crop damage) value.
# Test system: upland rice (Oryza sp., var. Tebonnet, RICE)
# method notes: Post-emerge test, crop safety
# Assay type: in vivo
# condition notes: Rate 250 g ai/ha; rating scale 0-100 (0 no damage, 100 complete death); 14 days after application
Write no unit; give the number alone.

q: Can you share its Post-emerge phytotoxicity rating RICE (crop damage)? I mean this compound: COc1c(Cl)cc(F)c(-n2c(=O)cc(C(F)(F)F)n(C)c2=O)c1CC(C)(Cl)C(=O)OCC(C)C (stereo not shown)
a: 75

q: // query: `CCOC(=O)CCc1c(OC)c(Cl)cc(F)c1-n1c(=O)cc(C(F)(F)F)n(C)c1=O`
a: 80

q: Now the compound COC(=O)C(Cl)Cc1c(OC)c(Cl)cc(F)c1-n1c(=O)cc(C(F)(F)F)n(C)c1=O (stereo not shown)
a: 80

q: Next entry: CCCCCCOC(=O)C(C)(Cl)Cc1c(OC)c(Cl)cc(F)c1-n1c(=O)cc(C(F)(F)F)n(C)c1=O (stereo not shown)
a: 40
